Assay Text: ATG_VDRE_CIS: Attagene CIS-FACTORIAL HepG2 Assay for human Vitamin D Receptor Element (VDRE) (AID 2282968)
Condition: HepG2 VDRE cis-reporter transcription, actives raise or lower the signal
Calls of active or inactive are those of the source. How the source made its calls: active means hit-call score of the fitted dose curve at least 0.9, where 1 is the maximum; inactive means score below 0.9.
Possible outcomes: 1.0 (active), 0.0 (inactive)

>  <Compound>
COC(=O)c1ccccc1

>  <Class>
0.0

$$$$
>  <Compound>
Cc1cccnc1

>  <Class>
0.0

$$$$
>  <Compound>
CCCCCC1CCCC(=O)O1 (centres undefined)

>  <Class>
0.0

$$$$
>  <Compound>
NCc1ccccc1

>  <Class>
0.0

$$$$
>  <Compound>
CCCCCCCCCCCCCCCCCC[N+](C)(C)C

>  <Class>
1.0

$$$$
>  <Compound>
Nc1nnc(-c2ccc([N+](=O)[O-])o2)o1

>  <Class>
0.0

$$$$
>  <Compound>
NC(=O)c1ccc([N+](=O)[O-])cc1Cl

>  <Class>
0.0

$$$$
>  <Compound>
Oc1cccc2ccccc12

>  <Class>
0.0

$$$$
>  <Compound>
Sc1nc2ccccc2s1

>  <Class>
0.0

$$$$
>  <Compound>
OCCc1ccccn1

>  <Class>
0.0

$$$$
>  <Compound>
CCCC(=O)OC

>  <Class>
0.0

$$$$
>  <Compound>
N#CCN(CC#N)CCN(CC#N)CC#N

>  <Class>
0.0

$$$$
>  <Compound>
c1ccc(CNc2ncnc3nc[nH]c23)cc1

>  <Class>
0.0

$$$$
>  <Compound>
O=C(O)Cc1c[nH]c2ccccc12

>  <Class>
0.0

$$$$
>  <Compound>
CO[Si](CCCNCCN)(OC)OC

>  <Class>
0.0

$$$$
>  <Compound>
O=C(O)c1nc(Cl)c(Cl)c(Cl)c1Cl

>  <Class>
0.0

$$$$
>  <Compound>
CC(C)(C)NC(=O)[C@@H]1CN(Cc2cccnc2)CCN1C[C@@H](O)C[C@@H](Cc1ccccc1)C(=O)N[C@H]1c2ccccc2C[C@H]1O

>  <Class>
0.0

$$$$
>  <Compound>
CCCN[C@H]1CCc2nc(N)sc2C1

>  <Class>
0.0

$$$$
>  <Compound>
NC(=O)c1ccc(N)cc1

>  <Class>
0.0

$$$$
>  <Compound>
CCCc1c(OCCCCc2nn[nH]n2)ccc(C(C)=O)c1O

>  <Class>
0.0

$$$$
>  <Compound>
COCCCN

>  <Class>
0.0

$$$$
>  <Compound>
CCCCCCC1CCCC(=O)O1 (centres undefined)

>  <Class>
0.0

$$$$
>  <Compound>
CC/C=C\CCCCCO

>  <Class>
0.0

$$$$
>  <Compound>
c1ccc2c(c1)Oc1ccccc1S2

>  <Class>
0.0

$$$$
>  <Compound>
CCCCCCCC#N

>  <Class>
0.0

$$$$
>  <Compound>
CN1CCCC1

>  <Class>
0.0

$$$$
>  <Compound>
CNC[C@H](O)[C@@H](O)[C@H](O)[C@H](O)CO

>  <Class>
0.0

$$$$
>  <Compound>
CCCCCCCCCCC1CO1 (centres undefined)

>  <Class>
0.0

$$$$
>  <Compound>
C=CCOC(=O)C(=C)C

>  <Class>
0.0

$$$$
>  <Compound>
CCCCCCCCCCCCCC

>  <Class>
0.0

$$$$
>  <Compound>
CN(C)Cc1cc(C(C)(C)C)c(O)c(C(C)(C)C)c1

>  <Class>
0.0

$$$$
>  <Compound>
CCC(=O)OCc1ccc(OC)cc1

>  <Class>
0.0

$$$$
>  <Compound>
C=CN1CCCCCC1=O

>  <Class>
0.0

$$$$
>  <Compound>
CCC(C)=NO

>  <Class>
0.0

$$$$
>  <Compound>
Cc1cc(-n2nc3ccc(Cl)cc3n2)c(O)c(C(C)(C)C)c1

>  <Class>
0.0

$$$$
>  <Compound>
Cc1cc(C)c(S(=O)(=O)O)cc1N=Nc1cc(S(=O)(=O)O)c2ccccc2c1O

>  <Class>
0.0

$$$$
>  <Compound>
COc1ccccc1OCC(O)CO (centres undefined)

>  <Class>
0.0

$$$$
>  <Compound>
Oc1ccc(Oc2ccccc2)cc1

>  <Class>
1.0

$$$$
>  <Compound>
C=CCOCC(CC)(CO)COCC=C

>  <Class>
0.0

$$$$
>  <Compound>
CC/C=C\CC1=C(C)CCC1=O

>  <Class>
0.0

$$$$
>  <Compound>
CCCCCCOC(=O)CCCCCCCC(=O)OCCCCCC

>  <Class>
0.0

$$$$
>  <Compound>
CCCCOC(=O)COc1ccc(Cl)cc1Cl

>  <Class>
0.0

$$$$
>  <Compound>
CC=CC(=O)O

>  <Class>
0.0

$$$$
>  <Compound>
O=C(C(=O)c1ccccc1)c1ccccc1

>  <Class>
0.0

$$$$
>  <Compound>
CCO[Si](OCC)(OCC)c1ccccc1

>  <Class>
0.0

$$$$
>  <Compound>
Cc1ccccc1S(N)(=O)=O

>  <Class>
1.0

$$$$
>  <Compound>
O=C(O)/C=C\C(=O)O

>  <Class>
0.0

$$$$
>  <Compound>
CCOC(=O)c1ccccc1

>  <Class>
0.0

$$$$
>  <Compound>
O=C(OCc1ccccc1)c1ccccc1

>  <Class>
0.0

$$$$
>  <Compound>
COC(=O)[C@]1(C)CCC[C@@]2(C)[C@H]1CC=C1C=C(C(C)C)CC[C@@H]12

>  <Class>
1.0

$$$$
>  <Compound>
COC(=O)/C=C\C(=O)OC

>  <Class>
1.0

$$$$
>  <Compound>
O=[N+]([O-])c1ccccc1C(F)(F)F

>  <Class>
0.0

$$$$
>  <Compound>
CC(C)(Oc1ccc(Cl)cc1)C(=O)O

>  <Class>
0.0

$$$$
>  <Compound>
O=C1NC(=O)C2CC=CCC12 (centres undefined)

>  <Class>
0.0

$$$$
>  <Compound>
F[B-](F)(F)F

>  <Class>
0.0

$$$$
>  <Compound>
C=C(C)C(=O)OCCCCCC

>  <Class>
0.0

$$$$
>  <Compound>
Clc1ccccn1

>  <Class>
0.0

$$$$
>  <Compound>
CC1=C(CC=O)C(C)(C)CCC1

>  <Class>
0.0

$$$$
>  <Compound>
c1cc[c]([Bi]([c]2ccccc2)[c]2ccccc2)cc1

>  <Class>
0.0

$$$$
>  <Compound>
CC(C)CC(=O)CC(C)C

>  <Class>
0.0

$$$$
>  <Compound>
CC/C=C\CCO

>  <Class>
0.0

$$$$
>  <Compound>
CCCOCCC

>  <Class>
0.0

$$$$
>  <Compound>
CCOC(=O)CC(=O)OCC

>  <Class>
0.0

$$$$
>  <Compound>
NC(N)=Nc1nc(CSCCC(N)=NS(N)(=O)=O)cs1

>  <Class>
0.0

$$$$
